biological target: UniProt:Q08499; assay: Lance cAMP assay, PDE-4D3 inhibition; settings: PDE4D3 0.024 nM, 20 nM cAMP, 90 min room temperature
Sequence (Q08499 1-673 isoform Q08499-2): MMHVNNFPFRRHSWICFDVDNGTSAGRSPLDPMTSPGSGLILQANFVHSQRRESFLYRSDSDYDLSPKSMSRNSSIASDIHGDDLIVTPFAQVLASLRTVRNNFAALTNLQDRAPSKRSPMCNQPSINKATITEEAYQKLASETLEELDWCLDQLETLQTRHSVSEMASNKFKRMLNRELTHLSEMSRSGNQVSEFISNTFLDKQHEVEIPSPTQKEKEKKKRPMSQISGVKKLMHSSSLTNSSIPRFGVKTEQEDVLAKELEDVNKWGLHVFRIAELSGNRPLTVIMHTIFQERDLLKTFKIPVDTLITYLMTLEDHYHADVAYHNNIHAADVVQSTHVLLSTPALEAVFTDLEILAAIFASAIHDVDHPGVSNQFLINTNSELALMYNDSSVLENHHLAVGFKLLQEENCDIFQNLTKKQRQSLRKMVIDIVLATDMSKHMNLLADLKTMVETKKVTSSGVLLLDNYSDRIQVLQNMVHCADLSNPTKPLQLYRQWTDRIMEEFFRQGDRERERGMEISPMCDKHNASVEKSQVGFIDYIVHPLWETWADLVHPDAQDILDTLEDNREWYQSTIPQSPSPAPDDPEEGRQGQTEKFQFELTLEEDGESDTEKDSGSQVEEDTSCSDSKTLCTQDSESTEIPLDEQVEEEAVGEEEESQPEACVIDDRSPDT
pIC50: −log10 of the molar value.
Give TRUE when the value for pIC50 is at least 7. Give FALSE when it is less.

-- ask Could you tell me if the measured pIC50 of `O=C(NC1CC1)c1nn(-c2cccc(Sc3cccnc3)c2)c2ncccc2c1=O` reaches 7 or more?
-- reply FALSE

-- ask Given `O=C(NC1CC1)c1nn(-c2cccc(Oc3cccnc3)c2)c2ncccc2c1=O` , state whether its pIC50 is at least 7.
-- reply FALSE

-- ask Given the entry O=C(NC1CC1)c1cn(-c2cccc(C#Cc3ccc[n+]([O-])c3)c2)c2ncccc2c1=O [MK-0873, reference compound] , answer whether its pIC50 meets or surpasses 7.
-- reply TRUE

-- ask Threshold query (pIC50 >= 7) on O=C(NC1CC1)c1nn(-c2cccc(Oc3ccc[n+]([O-])c3)c2)c2ncccc2c1=O [Nitrogen oxide of Compound 3]
-- reply FALSE

-- ask Is the recorded value of pIC50 equal to or greater than 7 for this compound? `O=C(NC1CC1)c1nn(-c2cccc(C#Cc3cccnc3)c2)c2ncccc2c1=O`
-- reply TRUE

-- ask Entry O=C(NC1CC1)c1nn(-c2cccc(C#Cc3ccc[n+]([O-])c3)c2)c2ncccc2c1=O [Nitrogen oxide of Compound 1] : is its pIC50 no less than 7?
-- reply TRUE

----------
target: PDE-4B1 (Homo sapiens, UniProt Q07343); test: Lance cAMP assay, PDE-4B1 inhibition; details: PDE4B1 0.18 nM, 20 nM cAMP, 90 min room temperature
Sequence (Q07343 whole entry, species assumed): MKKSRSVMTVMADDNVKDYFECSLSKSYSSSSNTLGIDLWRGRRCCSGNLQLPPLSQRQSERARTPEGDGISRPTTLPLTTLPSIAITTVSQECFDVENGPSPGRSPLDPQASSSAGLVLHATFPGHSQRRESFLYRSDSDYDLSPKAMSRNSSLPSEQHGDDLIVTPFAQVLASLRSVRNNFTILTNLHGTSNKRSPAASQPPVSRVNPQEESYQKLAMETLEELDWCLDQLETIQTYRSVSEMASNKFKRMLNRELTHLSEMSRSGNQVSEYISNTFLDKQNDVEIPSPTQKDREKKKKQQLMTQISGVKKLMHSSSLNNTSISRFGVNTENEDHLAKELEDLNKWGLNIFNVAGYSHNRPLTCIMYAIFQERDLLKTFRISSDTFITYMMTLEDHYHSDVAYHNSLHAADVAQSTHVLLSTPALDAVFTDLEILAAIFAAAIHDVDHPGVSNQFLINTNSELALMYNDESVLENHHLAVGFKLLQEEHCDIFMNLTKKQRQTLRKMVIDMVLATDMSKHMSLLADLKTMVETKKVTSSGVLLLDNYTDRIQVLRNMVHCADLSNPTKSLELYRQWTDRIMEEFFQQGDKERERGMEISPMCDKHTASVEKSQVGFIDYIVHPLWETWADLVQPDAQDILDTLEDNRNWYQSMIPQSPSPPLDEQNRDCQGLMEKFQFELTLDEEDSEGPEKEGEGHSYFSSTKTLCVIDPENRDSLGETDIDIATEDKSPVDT
readout name: IC50 (nM)
Answer in nM, number only, no unit symbol.

-- ask Which IC50 reading was recorded for the compound `O=C(NC1CC1)c1nn(-c2cccc(Oc3cccnc3)c2)c2ncccc2c1=O` ?
-- reply 305

-- ask Consider the compound O=C(NC1CC1)c1nn(-c2cccc(Oc3ccc[n+]([O-])c3)c2)c2ncccc2c1=O [Nitrogen oxide of Compound 3] and give its measured IC50.
-- reply 526

-- ask Query (compound): O=C(NC1CC1)c1cn(-c2cccc(C#Cc3ccc[n+]([O-])c3)c2)c2ncccc2c1=O [MK-0873, reference compound] ; field requested: IC50
-- reply 5.59

-- ask GET /values?readout=IC50&item= `O=C(NC1CC1)c1nn(-c2cccc(C#Cc3cccnc3)c2)c2ncccc2c1=O`
-- reply 2.68

-- ask Report IC50 for `O=C(NC1CC1)c1nn(-c2cccc(Sc3cccnc3)c2)c2ncccc2c1=O` please.
-- reply 161

-- ask Field request: IC50 | item: O=C(NC1CC1)c1nn(-c2cccc(C#Cc3ccc[n+]([O-])c3)c2)c2ncccc2c1=O [Nitrogen oxide of Compound 1]
-- reply 28.1

The reported numbers originate from patent US9181244B1.
